The values you see were collected from ChEMBL document CHEMBL4152363.

biological target: UniProt:P40763; assay: Inhibition of IFNgamma-stimulated STAT3 phosphorylation at Tyr705 residues in human AD293 cell lysates incubated with IFNgamma followed by compound addition at 10 uM by Western blot analysis
The source made the active and inactive calls. No cut-off for these calls is given here.
Give one outcome, nothing more. List: active, inactive

Check out these entries, answers already filled in.
CC(=O)OC[C@]1(C)C(=O)CC[C@@]2(C)[C@H](C/C=C3/C(=O)OC[C@H]3O[Si](C)(C)C(C)(C)C)[C@]3(CC[C@@H]21)CO3    active
C=C1CC[C@@H]2[C@](C)(CO)[C@H](O)CC[C@@]2(C)[C@@H]1C/C=C1/C(=O)OC[C@H]1O[Si](C)(C)C(C)(C)C    inactive

Please examine the following record next.
Prompt line: Which result was noted for this molecule in the test: CC(C)(C)[Si](C)(C)O[C@@H]1CC[C@]2(C)[C@H](CC[C@@]3(CO3)[C@H]2C/C=C2/C(=O)OC[C@H]2O)[C@]1(C)CO
Response line: inactive

---

Entries and their pEC50
target: UniProt P40763; test: Inhibition of […] activation in human HeLa cells incubated […] for 16 hrs followed by compound addition measured after 4 hrs by luciferase reporter gene assay; format: cell-based
pEC50: −log10 of the molar value.

CC(C)(C)[Si](C)(C)OC[C@]1(C)C(=O)CC[C@@]2(C)[C@H](C/C=C3/C(=O)OC[C@H]3O[Si](C)(C)C(C)(C)C)[C@]3(CC[C@@H]21)CO3    < 5.00
C=C1CC[C@@H]2[C@](C)(CO)[C@H](O)CC[C@@]2(C)[C@@H]1C/C=C1/C(=O)OC[C@H]1O[Si](C)(C)C(C)(C)C    < 5.00
C=C1CC[C@H]2[C@@](C)(CCC(=O)[C@@]2(C)CO)[C@@H]1C/C=C1/C(=O)OC[C@H]1O[Si](C)(C)C(C)(C)C    < 5.00

Assay UniProt P40763, sample CC(C)(C)[Si](C)(C)O[C@@H]1COC(=O)/C1=C/C[C@@H]1[C@]2(CC[C@@H]3[C@](C)(CO)[C@H](O)CC[C@]31C)CO2 , pEC50 read: < 5.00

Assay UniProt P40763, sample CC(C)(C)[Si](C)(C)OC[C@]1(C)C(=O)CC[C@@]2(C)[C@H](C/C=C3/C(=O)OC[C@H]3O)[C@]3(CC[C@@H]21)CO3 , pEC50 read: < 5.00

---

target: UniProt:P40763; experiment: Inhibition of IL-6 stimulated STAT3 activation in human AD293 cells incubated with IL-6 for 16 hrs followed by compound addition measured after 6 hrs by luciferase reporter gene assay; format: cell-based
TEST_READOUT: EC50 (µM)

CC(=O)O[C@@H]1COC(=O)/C1=C/C[C@@H]1[C@@]2(CC[C@@H]3[C@](C)(CO)[C@H](O)CC[C@]31C)CO2    3.04

a: CC(=O)OC[C@]1(C)C(=O)CC[C@@]2(C)[C@H](C/C=C3/C(=O)OC[C@H]3O[Si](C)(C)C(C)(C)C)[C@@]3(CC[C@@H]21)CO3
b: C=C1CC[C@H]2[C@@](C)(CCC(=O)[C@@]2(C)CO[Si](C)(C)C(C)(C)C)[C@@H]1C/C=C1/C(=O)OC[C@@H]1OC(C)=O
c: CC(=O)OC[C@]1(C)C(=O)CC[C@@]2(C)[C@H](C/C=C3/C(=O)OC[C@@H]3O[Si](C)(C)C(C)(C)C)[C@]3(CC[C@@H]21)CO3
Prompt line: Order the items by recorded EC50; the first position goes to the largest value. When ranking, write the labels in the order the request describes.
Response line: a, b, c
(a: 7.98 µM, b: 4.78 µM, c: 2.65 µM)

---

biological target: Signal transducer and activator of transcription 3 (Homo sapiens); test: Inhibition of IFNgamma-stimulated STAT3 activation in human AD293 cells incubated with IFNgamma for 16 hrs followed by compound addition measured after 24 hrs by luciferase reporter gene assay; type: cell-based
TEST_READOUT: EC50 (µM)

C=C1CC[C@@H]2[C@](C)(CO)[C@H](O)CC[C@@]2(C)[C@@H]1C/C=C1/C(=O)OC[C@H]1O[Si](C)(C)C(C)(C)C    5.68

A: CC(=O)OC[C@]1(C)C(=O)CC[C@@]2(C)[C@H](C/C=C3/C(=O)OC[C@H]3O[Si](C)(C)C(C)(C)C)[C@@]3(CC[C@@H]21)CO3
B: C=C1CC[C@H]2[C@@](C)(CCC(=O)[C@@]2(C)CO[Si](C)(C)C(C)(C)C)[C@@H]1C/C=C1/C(=O)OC[C@H]1O
Prompt line: Record comparison, field EC50: mark the lower of A and B . Give the label of your selection.
Response line: B

---

assay: Cytotoxicity against human AD293 cells; type: cell-based; conditions: AD293 cells
TEST_READOUT: CC50 (µM)
Kindly provide the numeric value in µM only, without the unit symbol.

Before answering, review these 6 worked examples.
CC(=O)O[C@@H]1COC(=O)/C1=C/C[C@@H]1[C@]2(CC[C@@H]3[C@](C)(CO)[C@H](O)CC[C@]31C)CO2    10.9
C=C1CC[C@H]2[C@@](C)(CCC(=O)[C@@]2(C)CO[Si](C)(C)C(C)(C)C)[C@@H]1C/C=C1/C(=O)OC[C@@H]1OC(C)=O    8.23
C=C1CC[C@@H]2[C@](C)(CO[Si](C)(C)C(C)(C)C)[C@H](O)CC[C@@]2(C)[C@@H]1C/C=C1/C(=O)OC[C@@H]1OC(C)=O    6.83
C=C1CC[C@H]2[C@@](C)(CCC(=O)[C@@]2(C)CO[Si](C)(C)C(C)(C)C)[C@@H]1C/C=C1/C(=O)OC[C@H]1OC(C)=O    7.35
C=C1CC[C@H]2[C@@](C)(CCC(=O)[C@@]2(C)CO[Si](C)(C)C(C)(C)C)[C@@H]1C/C=C1/C(=O)OC[C@H]1O    2.35
C=C1CC[C@@H]2[C@](C)(CO[Si](C)(C)C(C)(C)C)[C@H](O)CC[C@@]2(C)[C@@H]1C/C=C1/C(=O)OC[C@H]1OC(C)=O    7.33

Alright, here's another compound for you.
Per the record, CC(C)(C)[Si](C)(C)OC[C@]1(C)C(=O)CC[C@@]2(C)[C@H](C/C=C3/C(=O)OC[C@H]3O)[C@]3(CC[C@@H]21)CO3 has CC50 of 8.31

---

biological target: Signal transducer and activator of transcription 3 (Homo sapiens, UniProt P40763); test: Inhibition of IFNgamma-stimulated STAT3 activation in human AD293 cells incubated with IFNgamma for 16 hrs followed by compound addition measured after 24 hrs by luciferase reporter gene assay; type: cell-based
Sequence (P40763 whole entry): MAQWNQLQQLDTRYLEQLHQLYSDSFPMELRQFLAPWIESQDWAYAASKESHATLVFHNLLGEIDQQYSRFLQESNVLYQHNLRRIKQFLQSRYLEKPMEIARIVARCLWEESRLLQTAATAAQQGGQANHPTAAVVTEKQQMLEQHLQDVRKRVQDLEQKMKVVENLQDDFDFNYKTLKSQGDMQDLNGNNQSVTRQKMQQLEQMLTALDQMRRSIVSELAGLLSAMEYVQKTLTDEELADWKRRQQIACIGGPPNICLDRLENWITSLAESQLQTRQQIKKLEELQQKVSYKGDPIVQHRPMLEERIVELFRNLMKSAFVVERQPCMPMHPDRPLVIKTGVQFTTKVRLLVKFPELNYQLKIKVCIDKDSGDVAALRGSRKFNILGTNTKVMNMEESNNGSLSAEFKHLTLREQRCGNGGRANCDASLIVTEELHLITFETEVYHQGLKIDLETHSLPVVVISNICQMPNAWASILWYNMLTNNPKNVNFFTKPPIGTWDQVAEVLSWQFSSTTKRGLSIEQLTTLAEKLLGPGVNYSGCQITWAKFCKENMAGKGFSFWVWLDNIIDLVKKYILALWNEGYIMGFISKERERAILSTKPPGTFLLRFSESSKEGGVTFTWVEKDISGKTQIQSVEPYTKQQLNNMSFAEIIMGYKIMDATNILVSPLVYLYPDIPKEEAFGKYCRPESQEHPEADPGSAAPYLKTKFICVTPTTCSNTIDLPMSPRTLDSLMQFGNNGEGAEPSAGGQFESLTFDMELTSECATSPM
pEC50: −log10 of the molar value.
TEST_READOUT: pEC50

C=C1CC[C@@H]2[C@](C)(COC(C)=O)[C@H](OC(C)=O)CC[C@@]2(C)[C@@H]1C/C=C1/C(=O)OC[C@H]1O[Si](C)(C)C(C)(C)C    5.09
CC(C)(C)[Si](C)(C)O[C@@H]1CC[C@]2(C)[C@H](CC[C@]3(CO3)[C@H]2C/C=C2/C(=O)OC[C@H]2O)[C@]1(C)CO    5.27

---

molecular target: Signal transducer and activator of transcription 3 (Homo sapiens); assay: Inhibition of IFNgamma-stimulated STAT3 activation in human AD293 cells incubated with IFNgamma for 16 hrs followed by compound addition measured after 24 hrs by luciferase reporter gene assay; format: cell-based
TEST_READOUT: EC50 (µM)

CC(=O)OC[C@]1(C)C(=O)CC[C@@]2(C)[C@H](C/C=C3/C(=O)OC[C@@H]3O[Si](C)(C)C(C)(C)C)[C@@]3(CC[C@@H]21)CO3    2.23
CC(C)(C)[Si](C)(C)OC[C@]1(C)C(=O)CC[C@@]2(C)[C@H](C/C=C3/C(=O)OC[C@H]3O[Si](C)(C)C(C)(C)C)[C@]3(CC[C@@H]21)CO3    4.4
C=C1CC[C@@H]2[C@](C)(CO[Si](C)(C)C(C)(C)C)[C@H](O)CC[C@@]2(C)[C@@H]1C/C=C1/C(=O)OC[C@@H]1OC(C)=O    8.15
C=C1CC[C@@H]2[C@](C)(CO[Si](C)(C)C(C)(C)C)[C@H](OC(C)=O)CC[C@@]2(C)[C@@H]1C/C=C1/C(=O)OC[C@H]1OC(C)=O    5.05
CC(=O)OC[C@]1(C)C(=O)CC[C@@]2(C)[C@H](C/C=C3/C(=O)OC[C@@H]3O[Si](C)(C)C(C)(C)C)[C@]3(CC[C@@H]21)CO3    2.55

a: CC(C)(C)[Si](C)(C)O[C@@H]1CC[C@]2(C)[C@H](CC[C@@]3(CO3)[C@H]2C/C=C2/C(=O)OC[C@H]2O)[C@]1(C)CO
b: CC(=O)O[C@@H]1COC(=O)/C1=C/C[C@@H]1[C@@]2(CC[C@@H]3[C@](C)(CO)[C@H](O)CC[C@]31C)CO2
Prompt line: Which item exceeds the other in EC50, a or b ? Give the label of your selection.
Response line: a
